# Tested on: 293T-HRE-GFP-luc cells
# Assay Remarks: Cell-based reporter assay for IC50 determinations
# Experimental Context: hypoxia 6 hrs (1% O2), luminescence, read-out: IC50 Classification
Counter-ions that a name gives are not always drawn.
Metric Name: IC50

Cc1nc(-c2nc(-c3ccc(C(C)(C)C)cc3)no2)nn1Cc1ccnc(N2CCN(C)CC2)c1 [Example 9] | < 0.1 µM
Cc1nc(-c2nc(-c3ccc(OC(F)(F)F)cc3)no2)nn1Cc1cccc(C(N)=O)c1 [Example 118] | < 0.1 µM
Cc1nc(-c2nc(-c3ccc(OC(F)(F)F)cc3)no2)nn1Cc1cnccn1 [Example 54] | 1 to 10 µM
COCCCn1cc(Cn2nc(-c3nc(-c4ccc(OC(F)(F)F)cc4)no3)nc2C)ccc1=O [Example 140] | 0.1 to 1 µM
COCCOc1cccc(Cn2nc(-c3nc(-c4ccc(OC(F)(F)F)cc4)cs3)nc2C)c1 [Example 90] | 0.1 to 1 µM
Cc1cccc(Cn2nc(-c3nc(-c4ccc(OC(F)(F)F)cc4)no3)nc2C)n1 [Example 108] | 1 to 10 µM
Cc1nc(-c2nc(-c3ccc(OC(F)(F)F)cc3)no2)nn1Cc1ccc2c(c1)nnn2C [Example 114] | 0.1 to 1 µM
Cc1nc(-c2nc(-c3ccc(OC(F)(F)F)cc3)no2)nn1Cc1ccc(=O)n(CCN(C)C)c1 [Example 128] | 0.1 to 1 µM
Cc1nc(-c2cc(-c3ccc(OC(F)(F)F)cc3)no2)nn1Cc1ccnc(N2CCN(C)CC2)c1 [Example 161] | < 0.1 µM
Cc1nc(-c2nc(-c3ccc(OC(F)(F)F)cc3)no2)nn1Cc1cccc(N2CCN(C)CC2)c1 [Example 25, trifluoroacetate] | < 0.1 µM
CNC(=O)c1cccc(Cn2nc(-c3nc(-c4ccc(OC(F)(F)F)cc4)no3)nc2C)c1 [Example 120] | < 0.1 µM
Cc1nc(-c2nc(-c3ccc(OC(F)(F)F)cc3)no2)nn1Cc1cccc(C#N)c1 [Example 107] | 0.1 to 1 µM
Cc1nc(-c2nc(-c3ccc(OC(F)(F)F)cc3)no2)nn1Cc1ccc(C(=O)N2CCN(C)CC2)cc1 [Example 42] | 0.1 to 1 µM
FC(F)(F)Oc1ccc(-c2noc(-c3nc(-c4cccnc4)n(Cc4ccccc4)n3)n2)cc1 [Example 4, trifluoroacetate] | < 0.1 µM
Cc1nc(-c2nc(-c3ccc(OC(F)(F)F)cc3)no2)nn1Cc1ccnc(NCCN(C)C)c1 [Example 45] | 1 to 10 µM
Cc1nc(-c2nc(-c3ccc(OC(F)(F)F)cc3)no2)nn1Cc1ccnc(N2CCC(C)(C)CC2)c1 [Example 31] | < 0.1 µM

The origin of these recorded values is patent US10208059B2.
